assay: Partition coefficient (logP); assay type: physicochemical; settings: octanol/water
Documented logP across a set of molecules
API note: the answer field is a bare number with no unit suffix.

[
  {
    "CHEMICAL_STRING": "c1ccc2sccc2c1",
    "MEASURED_RESULT": 3.09
  },
  {
    "CHEMICAL_STRING": "c1ccc2[nH]ncc2c1",
    "MEASURED_RESULT": 1.82
  },
  {
    "CHEMICAL_STRING": "Cn1ccc2ccccc21",
    "MEASURED_RESULT": 2.72
  },
  {
    "CHEMICAL_STRING": "c1ccc2[nH]cnc2c1",
    "MEASURED_RESULT": 1.2
  }
]

-- ask Entry under review: c1ccc2[nH]nnc2c1 . Reported logP?
-- reply 1.34
